Biological target: T1, K678E (Drosophila melanogaster, UniProt Q9W1K4 512-819, K678E)
T1 sequence: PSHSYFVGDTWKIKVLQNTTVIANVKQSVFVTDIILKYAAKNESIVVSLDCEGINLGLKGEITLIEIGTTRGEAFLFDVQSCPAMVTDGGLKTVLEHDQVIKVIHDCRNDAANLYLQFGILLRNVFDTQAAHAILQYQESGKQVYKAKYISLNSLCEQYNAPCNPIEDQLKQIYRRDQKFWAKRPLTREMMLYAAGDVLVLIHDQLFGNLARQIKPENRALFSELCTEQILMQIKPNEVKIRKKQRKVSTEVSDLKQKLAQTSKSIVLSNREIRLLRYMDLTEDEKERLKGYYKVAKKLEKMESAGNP
Assay: fluorescence anisotropy; FA: 20 mM HEPES-NaOH pH 7.5, 100 mM NaCl, 10% glycerol, 20 C, 10 nM FAM-RNA; competition: 150 nM Egl512-819 + 10 nM FAM-K10 TLS, same buffer
Details: protein: recombinant; tags: N-terminal GST; label: 5'-6-FAM; hairpin with two bulges
metricName: Kd (nM)
Provide the reading as a plain figure in nM.

Request: Which Kd value is on record for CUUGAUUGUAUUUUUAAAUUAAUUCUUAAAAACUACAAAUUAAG (structured_RNA) [K10 TLS (FAM)] ?
Result: 195
